# study-system: SARS-CoV-2 spike S1 protein (SARS-CoV-2, UniProt P0DTC2 16-685)
recorded-metric: koff (s⁻¹)

INSERT INTO measurements (binder, recorded_metric, readout_number) VALUES
  ('AB-009666 (antibody, V domains shown) VH: EVQLVESGGGLVQPGGSLRLSCAASGFTFSSYDMHWVRQATGKGLEWVSTIGTAGDTYYPGSVKGRFTISRENAKNSLYLQMNSLRAEDTAVYYCARVNYDSSGYPTYWYFDLWGRGTLVTVSS VL: DIQMTQSPSSLSASVGDRVTITCRASQSISRYLNWYQQKPGKAPKLLIYAASSLQSGVPSRFSGSGSGTDFTLTISSLQPEDFATYNCQQSYSSPPWTFGQGTKVEIK', 'koff', 0.000546);
